These entries and their values trace back to patent US20190271705A1.

# Kd annotations
# tgt: VEGFR1-pY1213mod
# assay: fluorescence polarization
Kindly answer with a numeric value in nM, unit omitted.

- T8V S10A K15L (designed binder) MKIEEHHHHHHSSGRENLYFQGGAAQPAAPVDSIQAEEWYFGKLGRKDAERQLLSFGNPRGTFLIRESETVKGAYALSIRDWDDMKGDHVKHYLIRKLDNGGYYITTRAQFETLQQLVQHYSERAAGLSSRLVVPSHKGAAA: 58

Now, please, on to the next binder.
Entry under test: T8I S10A K15L (designed binder) MKIEEHHHHHHSSGRENLYFQGGAAQPAAPVDSIQAEEWYFGKLGRKDAERQLLSFGNPRGTFLIRESETIKGAYALSIRDWDDMKGDHVKHYLIRKLDNGGYYITTRAQFETLQQLVQHYSERAAGLSSRLVVPSHKGAAA . Its Kd was 180
